- system-under-test: HCV NS5B S365A mutant (Hepatitis C virus genotype 1b, UniProt Q9WMX2, S2784A)
- Construct: HCV NS5B C316Y or S365A mutant as indicated; expressed in transfected cells
- assay-procedure: Activity against HCV NS5B S365A mutant
- Type: cell-based
- test-conditions: class symbol; S3865A mutant
reported-metric: Inhibition of HCV NS5B S3865A mutant

>>> print(df.to_string())
                                   compound                         system_under_test  reported_measurement
0  CNC(=O)c1c(-c2ccc(Oc3ccc(F)cc3)cc2)oc2cc3c(cc12)[C@H](C)CCCN3S(C)(=O)=O (single isomer, unassigned)  HCV NS5B S365A mutant (Hepatitis C virus genotype 1b, UniProt Q9WMX2, S2784A)                   †††
1  CNC(=O)c1c(-c2ccc(F)cc2)oc2cc3c(cc12)[C@H](C)O[C@H](CS(C)(=O)=O)CN3S(C)(=O)=O  HCV NS5B S365A mutant (Hepatitis C virus genotype 1b, UniProt Q9WMX2, S2784A)                   †††
2  CNC(=O)c1c(-c2ccc(F)cc2)oc2cc3c(cc12)[C@H](C)n1nncc1CN3S(C)(=O)=O (single isomer, unassigned)  HCV NS5B S365A mutant (Hepatitis C virus genotype 1b, UniProt Q9WMX2, S2784A)                   †††
